Papp A→B at 120 min for assorted molecules
Assay: Caco-2 cell permeability
Assay type: in vitro ADME
Conditions: human, Caco-2, pH 7.4
Answer format: numeric, ×10⁻⁶ cm/s implied, no suffix.

[[record]]
molecule = "COC(=O)c1ccccc1-c1c2ccc(=N)cc-2oc2cc(N)ccc12 [rhodamine 123]"
readout_name = "Papp A→B at 120 min"
unit_string = "×10⁻⁶ cm/s"
reported = 1.6


Turning to the following molecule.
Exercise: May I ask what Papp A→B at 120 min has been recorded for CC(C)NCC(O)COc1cccc2ccccc12 (centres unmarked) [propranolol] ?
Key: 42

====

Cmax for assorted compounds
Experiment: Pharmacokinetics and urinary/faecal recovery after oral administration in rats
Assay type: in vivo, Sprague Dawley rats
Conditions: male, Sprague Dawley, rat, plasma, po, 30 mg/kg
Answer format: numeric, nM implied, no suffix.

Exercise: May I ask what Cmax has been recorded for C[N+](C)(C)CCc1ccc(Oc2ccc(-c3noc(-c4ccc(O)cc4)n3)cc2)cc1.[I-] [26a] ?
Key: 39

Exercise: May I ask what Cmax has been recorded for Cl.NCCc1ccc(Oc2ccc(-c3noc(-c4ccc(O)cc4)n3)cc2)cc1 [15e] ?
Key: 160
